Below, each entry is listed with its recorded IC50.
Molecular target: CCR4 (Homo sapiens, UniProt P51679)
Sequence (P51679 1-360): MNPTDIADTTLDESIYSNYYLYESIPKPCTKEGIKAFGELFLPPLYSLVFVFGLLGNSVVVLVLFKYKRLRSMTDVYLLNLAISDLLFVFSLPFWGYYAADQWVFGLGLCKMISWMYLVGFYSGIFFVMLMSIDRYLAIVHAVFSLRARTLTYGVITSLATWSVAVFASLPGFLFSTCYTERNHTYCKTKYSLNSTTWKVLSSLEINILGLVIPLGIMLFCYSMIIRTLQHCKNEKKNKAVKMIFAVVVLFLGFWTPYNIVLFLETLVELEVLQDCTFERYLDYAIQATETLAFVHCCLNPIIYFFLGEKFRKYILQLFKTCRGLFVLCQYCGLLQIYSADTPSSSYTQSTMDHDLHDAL
Experiment: Calcium flow detected by FLIPR
Settings: CCR4/HEK293 cells, agonist CCL17, Fluo-4 calcium signal

Check the records and state IC50 for C[C@H](c1ccc(Cl)cc1Cl)n1nc(C#N)c2ncc(N3CC(C4CN(CCO)CCO4)C3)nc21 (stereo partly shown)
< 100 nM

Retrieve IC50 measured for C[C@@H](Nc1nc(N2CC([C@H]3CCCN([C@H]4C[C@](C)(C(=O)O)C4)C3)C2)c2c(ccn2C)n1)c1ccc(Cl)cc1Cl and print it.
100 to 500 nM

Please report the measured IC50 for C[C@@H](Nc1cc(N2CC([C@H]3CCCN(CCO)C3)C2)nc2ccnn12)c1ccc(Cl)cc1Cl
< 100 nM

Fill in IC50 for record CC(Nc1cc(N2CCC(C3CN(C4CC(C)(C(=O)O)C4)CCO3)CC2)ccc1Cl)c1ccc(Cl)cc1Cl (single isomer, unassigned) [Compound 82 isomer 3]
< 100 nM

Give IC50 for CC(Nc1nc(N2CC(C3CN(C4CC(C)(C(=O)O)C4)CCC34CC4)C2)nc(C(F)F)c1Cl)c1ccc(Cl)cc1Cl (single isomer, unassigned) [Compound 74 isomer 3]
100 to 500 nM

----------
experiment: Pharmacokinetic test in monkeys; assay type: in vivo, cynomolgus monkeys; conditions: male, cynomolgus monkey, iv, plasma, i.v. 1 mg/kg
MEASURED_ATTRIBUTE: AUC(0-t) (ng·h/mL)
Write the number in ng·h/mL without appending the unit.

C[C@@H](Nc1cc(N2CC(C3CN(C4CC(C)(C(=O)O)C4)CCO3)C2)ccc1Cl)c1ccc(Cl)cc1Cl (single isomer, unassigned) [Compound 83 isomer 1] ... 15800

Turning to the following compound.
Supply AUC(0-t) value. Item: Cc1nc(N2CC(C3CN(C4CC(C)(C(=O)O)C4)CCO3)C2)nc(NC(C)c2ccc(Cl)cc2Cl)c1Cl (single isomer, unassigned) [Compound 9 isomer 3]
6930

----------
Items are presented alongside their recorded AUC(0-t).
assay: Pharmacokinetic test in monkeys; format: in vivo, cynomolgus monkeys; details: male, cynomolgus monkey, po, plasma, i.g. 5 mg/kg
Give a bare numeral; the unit ng·h/mL is implied.

Find the measured AUC(0-t) of Cc1nc(N2CC(C3CN(C4CC(C)(C(=O)O)C4)CCO3)C2)nc(NC(C)c2ccc(Cl)cc2Cl)c1Cl (single isomer, unassigned) [Compound 9 isomer 3] and report it.
25200

Return AUC(0-t) for the following compound: C[C@@H](Nc1cc(N2CC(C3CN(C4CC(C)(C(=O)O)C4)CCO3)C2)ccc1Cl)c1ccc(Cl)cc1Cl (single isomer, unassigned) [Compound 83 isomer 1]
60700

----------
biological target: CCR4 (Homo sapiens); assay: Calcium flow detected by FLIPR; conditions: CCR4/HEK293 cells, agonist CCL17, Fluo-4 calcium signal
pIC50: −log10 of the molar value.
Below, each entry is listed alongside its reported pIC50.

Observe how each entry below is paired with its result.
Cc1nc(N2CC(C3CN(CC(C)(C)O)CCO3)C2)nc(N[C@H](C)c2ccc(Cl)cc2Cl)c1Cl (stereo partly drawn) ... > 7.00
C#Cc1cc(Cl)ccc1C(C)Nc1nc(N2CC(C3CCCN(C4CC(C)(C(=O)O)C4)C3)C2)nc(C)c1Cl (single isomer, unassigned) [Compound 7 isomer 2] ... 6.30 to 7.00
C[C@@H](Nc1nc2c(c(N3CC(C4CN(C5CC(C)(C(=O)O)C5)CCO4)C3)n1)CN(C)C2)c1ccc(Cl)cc1Cl (single isomer, unassigned) [Compound 68 isomer 1] ... 6.30 to 7.00
CC(Nc1nc(N2CC(F)(C3CN(C4CC(C)(C(=O)O)C4)CCO3)C2)nc(C(F)(F)F)c1Cl)c1ccc(Cl)cc1Cl (single isomer, unassigned) [Compound 65 isomer 3] ... 6.30 to 7.00
CC(Nc1cc(C#CC2CCCN(C3CC(C)(C(=O)O)C3)C2)ccc1Cl)c1ccc(Cl)cc1Cl (single isomer, unassigned) [Compound 75 isomer 2] ... 6.30 to 7.00

Please give the documented pIC50 of Cc1cc(N2CC([C@H]3CCCN([C@H]4C[C@](C)(C(=O)O)C4)C3)C2)nc(N[C@H](C)c2ccc(Cl)cc2Cl)n1
> 7.00

----------
test: Pharmacokinetic test in mice; format: in vivo, C57 mice; settings: i.g. 10 mg/kg
Catalogue of F values

Examples from the recorded data:
Cc1nc(N2CCC(C3CN(C4CC(C)(C(=O)O)C4)CCO3)CC2)nc(NC(C)c2ccc(Cl)cc2Cl)c1Cl (single isomer, unassigned) [Compound 73 isomer 3] ... 90.4 ± 14%
Cc1nc(N2CC(F)(C3CN(C4CC(C)(C(=O)O)C4)CCO3)C2)nc(N[C@H](C)c2ccc(Cl)cc2Cl)c1Cl (single isomer, unassigned) [Compound 64 isomer 3] ... 118 ± 4.5%
C[C@@H](Nc1cc(N2CC(C3CN(C4CC(C)(C(=O)O)C4)CCO3)C2)ccc1Cl)c1ccc(Cl)cc1Cl (single isomer, unassigned) [Compound 83 isomer 1] ... 91.6 ± 12%

Now consider the entry below.
Given Cc1nc(N2CCC(C3CN(CCC(=O)O)CCO3)CC2)nc(NC(C)c2ccc(Cl)cc2Cl)c1Cl (single isomer, unassigned) [Compound 76 isomer 2] , respond with its F.
123 ± 14%

----------
Biological target: UniProtKB P51679
Sequence (P51679 1-360): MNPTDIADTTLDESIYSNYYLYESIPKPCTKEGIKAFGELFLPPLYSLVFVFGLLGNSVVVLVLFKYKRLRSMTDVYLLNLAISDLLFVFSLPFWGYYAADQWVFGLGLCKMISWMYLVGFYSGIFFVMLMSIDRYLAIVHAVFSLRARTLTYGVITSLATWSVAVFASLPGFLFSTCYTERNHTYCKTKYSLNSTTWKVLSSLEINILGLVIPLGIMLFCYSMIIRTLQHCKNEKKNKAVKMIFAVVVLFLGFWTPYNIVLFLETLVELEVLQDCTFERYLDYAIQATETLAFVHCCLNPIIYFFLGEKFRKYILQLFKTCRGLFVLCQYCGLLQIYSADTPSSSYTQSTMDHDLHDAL
Assay: Calcium flow detected by FLIPR
Conditions: CCR4/HEK293 cells, agonist CCL17, Fluo-4 calcium signal
pIC50: −log10 of the molar value.
MEASURED_ATTRIBUTE: pIC50

Reference set, count: 2
C#Cc1ccc(C(C)Nc2nc(N3CC([C@H]4CCCN([C@H]5C[C@](C)(C(=O)O)C5)C4)C3)nc(C)c2Cl)c(Cl)c1 (single isomer, unassigned) [Compound 11 isomer 1] ... > 7.00
C[C@@H](Nc1nc2c(c(N3CC([C@H]4CCCN([C@H]5C[C@](C)(C(=O)O)C5)C4)C3)n1)COC2)c1ccc(Cl)cc1Cl [Compound 45] ... 6.30 to 7.00

// switching to the query compound
Please supply the value of reported pIC50 for the item CC(Nc1nc(N2CC(C3CN(C4CC(C)(C(=O)O)C4)CCO3)C2)ncc1Cl)c1ccc(Cl)cc1Cl (single isomer, unassigned) [Compound 42 isomer 1]
> 7.00

----------
Assay: Pharmacokinetic test in beagle dogs
Assay type: in vivo
Conditions: male, beagle, dog, iv, plasma, i.v. 1 mg/kg
Procedure: Experimental animals: male beagle dogs, about 8-11 kg, 6 beagle dogs/compound, purchased from Beijing Marshall Biotechnology Co., Ltd. Experimental method: On the day of the experiment, 18 beagle dogs were randomly grouped according to their body weights. […] Before and after the administration, 1 ml of blood was taken from the jugular veins or limb veins, and placed in an EDTAK2 centrifuge tube. […] The samples were analyzed quantitatively by LC-MS/MS.
clearance: recorded values
Express it in mL/min/kg; write the number only.

Cc1nc(N2CCC(C3CN(C4CC(C)(C(=O)O)C4)CCO3)CC2)nc(NC(C)c2ccc(Cl)cc2Cl)c1Cl (single isomer, unassigned) [Compound 73 isomer 3] ... 1.38

Turning now to a further compound:
Answer with the recorded clearance for the compound listed here: CC(Nc1cc(N2CCC(C3CN(C4CC(C)(C(=O)O)C4)CCO3)CC2)ccc1Cl)c1ccc(Cl)cc1Cl (single isomer, unassigned) [Compound 82 isomer 3]
0.672
